Just for reference, ChEMBL document CHEMBL5500326 is where these values come from.

# Kd per entry
# PROTOCOL_DESCRIPTION: Displacement of fluorescent tracer 3'-chloro-N-(2-(3-(3',6'-dihydroxy-3-oxo-3H-spiro[isobenzofuran-1,9'-xanthen]-5-yl)thioureido)ethyl)-4'-(alpha-D-mannopyranosyloxy)biphenyl-4-carboxamide from Escherichia coli F18 FimH […] expressed in Escherichia coli HM125 assessed as dissociation constant incubated for 24 hrs by competitive binding based fluorescence polarization assay
# CONDITIONS_USED: read-out: Kd
Please reply with the bare figure in nM and do not write the unit itself.

Please review the following examples before continuing.
SMILES_REPR: OC[C@H]1O[C@H](Oc2ccc(-c3ccccc3)cc2)[C@@H](O)[C@@H](O)[C@@H]1O
Kd / nM: 15.1

SMILES_REPR: OC[C@H]1OC[C@H](OCc2ccc(-c3ccccc3)cc2)[C@@H](O)[C@@H](O)[C@@H]1O
Kd / nM: 5670

SMILES_REPR: N#Cc1ccc(-c2ccc(CO[C@H]3CO[C@H](CO)[C@@H](O)[C@H](O)[C@@H]3O)cc2)cc1
Kd / nM: 1440

Query block: Could you share which Kd value was measured for "NC(=O)c1ccc(-c2ccc(O[C@H]3CO[C@H](CO)[C@@H](O)[C@H](O)[C@@H]3O)c(Cl)c2)cc1" ?
Result block: 120

Query block: Okay, and "OC[C@H]1OC[C@H](Oc2ccc(-c3ccccc3)cc2Cl)[C@@H](O)[C@@H](O)[C@@H]1O" ?
Result block: 60

* * *

# TESTED_ON: UniProt P08191
# Sequence (P08191 whole entry): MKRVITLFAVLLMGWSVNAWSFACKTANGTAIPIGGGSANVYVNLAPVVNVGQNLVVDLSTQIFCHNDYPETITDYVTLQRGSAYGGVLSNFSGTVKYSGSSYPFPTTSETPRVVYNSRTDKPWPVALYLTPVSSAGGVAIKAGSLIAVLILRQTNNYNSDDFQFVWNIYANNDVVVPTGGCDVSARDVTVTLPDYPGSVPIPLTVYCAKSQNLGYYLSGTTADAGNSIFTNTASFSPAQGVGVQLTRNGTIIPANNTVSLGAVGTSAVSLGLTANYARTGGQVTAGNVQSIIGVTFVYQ
# PROTOCOL_DESCRIPTION: Displacement of fluorescent tracer 3'-chloro-N-(2-(3-(3',6'-dihydroxy-3-oxo-3H-spiro[isobenzofuran-1,9'-xanthen]-5-yl)thioureido)ethyl)-4'-(alpha-D-mannopyranosyloxy)biphenyl-4-carboxamide from Escherichia coli F18 full-length FimH expressed in Escherichia coli HM125 assessed as dissociation constant incubated for 24 hrs by competitive binding based fluorescence polarization assay
# CONDITIONS_USED: read-out: Kd
pKd: −log10 of the molar value.
Record 1 whenever pKd is at 5 or higher; record 0 when lower.

SMILES_REPR: CCCCCCCO[C@H]1O[C@H](CO)[C@@H](O)[C@H](O)[C@@H]1O
LABEL_VALUE: 1

SMILES_REPR: NC(=O)c1ccc(-c2ccc(CO[C@H]3CO[C@H](CO)[C@@H](O)[C@H](O)[C@@H]3O)cc2)cc1
LABEL_VALUE: 0

SMILES_REPR: N#Cc1ccc(-c2ccc(O[C@H]3CO[C@H](CO)[C@@H](O)[C@H](O)[C@@H]3O)c(Cl)c2)cc1
LABEL_VALUE: 1

SMILES_REPR: OC[C@H]1OC[C@H](OCCCc2ccccc2)[C@@H](O)[C@@H](O)[C@@H]1O
LABEL_VALUE: 0

SMILES_REPR: N#Cc1ccc(-c2ccc(O[C@H]3O[C@H](CO)[C@@H](O)[C@H](O)[C@@H]3O)c(Cl)c2)cc1
LABEL_VALUE: 1

SMILES_REPR: N#Cc1ccc(-c2ccc(O[C@H]3CO[C@H](CO)[C@@H](O)[C@H](O)[C@@H]3O)cc2)cc1
LABEL_VALUE: 0

Moving on to another compound below.
Query block: Determine whether this compound has pKd no lower than 5: "OC[C@H]1OC[C@H](OCc2ccc(-c3ccccc3)cc2)[C@@H](O)[C@@H](O)[C@@H]1O"
Result block: 0
